target: T1, SARS-CoV-2 N protein oligomerization domain (SARS-CoV-2, UniProt P0DTC9 247-364); assay: Octet, KD (nM) heat map
T1 construct: also called N olig. domain; OD
assay readout: binding result

binder: NP3-E3 (antibody, V domains shown) VH: QIQLVQSGPDLKKPGETVKISCKASGYTFTDYSMHWVKQVPGKGLKWMGWINTETDKPTYADDFKGRFAFSLETSASTAYSQINNLKNEDTATYFCARHYKYDEAWSPYWGQGTLVTVSA VL: DIVLTQSPASLSVSVGETVTITCRASENIYSNLAWYQQKQGQSPQLLVYAATDLADGVPSRFSGSGSGTQYSLKINSLQSEDFGNYYCQHFWGTPWTFGGGTKLEIK
assay readout: binding result
data value: no binding

binder: NP3-C5 (antibody, V domains shown) VH: QIQLVQSGPELKTPGETVKISCKASGYTFTNCGMHWVKQAPGKGLKWMGWINTYTGEPIYADDFKRRFAFSLETSASTAYLQINNLNNEDTASYFCARRDDVYYVAGFDYWGQGTTVTVFS VL: DIQMTQSPASLSVSVGETVTITCRASENIYSNLAWYQQKQGKSPQLLVYGATDLADGVPSRFSGSGSGTQYSLKINSLQSEDFGSYYCQHFWGTPWTFGGGTKLELK
assay readout: binding result
data value: no binding

binder: NP3-C11 (antibody, V domains shown) VH: EVQLVESGGGLVRPGGSLKLSCAASGFTFSDYYMYWVRQTPEKRLEWVATISDGGGYNYYPDSVKGRFTVSRDNAKNNLYLQMSSLKSEDTAMYYCVRDKYDGWGSDFDVWGAGTTVTVSS VL: DIVMTQSPSLMSTSLGERVTMTCTANSSVSSNYMHWYQQKPGSSPKLWIYSTSNLASGVPARFSGSGSGTSYSLTISNMEAEDAATYYCHQFHRSPRTFGGGTKLEIK
assay readout: binding result
data value: no binding
